Readings of Ki for the listed molecules
- tgt: ATR kinase (full-length ATR) (Homo sapiens, UniProt Q13535)
- Construct: Assays were carried out at 25° C. in the presence of 5 nM full-length ATR
- Sequence (Q13535 whole entry): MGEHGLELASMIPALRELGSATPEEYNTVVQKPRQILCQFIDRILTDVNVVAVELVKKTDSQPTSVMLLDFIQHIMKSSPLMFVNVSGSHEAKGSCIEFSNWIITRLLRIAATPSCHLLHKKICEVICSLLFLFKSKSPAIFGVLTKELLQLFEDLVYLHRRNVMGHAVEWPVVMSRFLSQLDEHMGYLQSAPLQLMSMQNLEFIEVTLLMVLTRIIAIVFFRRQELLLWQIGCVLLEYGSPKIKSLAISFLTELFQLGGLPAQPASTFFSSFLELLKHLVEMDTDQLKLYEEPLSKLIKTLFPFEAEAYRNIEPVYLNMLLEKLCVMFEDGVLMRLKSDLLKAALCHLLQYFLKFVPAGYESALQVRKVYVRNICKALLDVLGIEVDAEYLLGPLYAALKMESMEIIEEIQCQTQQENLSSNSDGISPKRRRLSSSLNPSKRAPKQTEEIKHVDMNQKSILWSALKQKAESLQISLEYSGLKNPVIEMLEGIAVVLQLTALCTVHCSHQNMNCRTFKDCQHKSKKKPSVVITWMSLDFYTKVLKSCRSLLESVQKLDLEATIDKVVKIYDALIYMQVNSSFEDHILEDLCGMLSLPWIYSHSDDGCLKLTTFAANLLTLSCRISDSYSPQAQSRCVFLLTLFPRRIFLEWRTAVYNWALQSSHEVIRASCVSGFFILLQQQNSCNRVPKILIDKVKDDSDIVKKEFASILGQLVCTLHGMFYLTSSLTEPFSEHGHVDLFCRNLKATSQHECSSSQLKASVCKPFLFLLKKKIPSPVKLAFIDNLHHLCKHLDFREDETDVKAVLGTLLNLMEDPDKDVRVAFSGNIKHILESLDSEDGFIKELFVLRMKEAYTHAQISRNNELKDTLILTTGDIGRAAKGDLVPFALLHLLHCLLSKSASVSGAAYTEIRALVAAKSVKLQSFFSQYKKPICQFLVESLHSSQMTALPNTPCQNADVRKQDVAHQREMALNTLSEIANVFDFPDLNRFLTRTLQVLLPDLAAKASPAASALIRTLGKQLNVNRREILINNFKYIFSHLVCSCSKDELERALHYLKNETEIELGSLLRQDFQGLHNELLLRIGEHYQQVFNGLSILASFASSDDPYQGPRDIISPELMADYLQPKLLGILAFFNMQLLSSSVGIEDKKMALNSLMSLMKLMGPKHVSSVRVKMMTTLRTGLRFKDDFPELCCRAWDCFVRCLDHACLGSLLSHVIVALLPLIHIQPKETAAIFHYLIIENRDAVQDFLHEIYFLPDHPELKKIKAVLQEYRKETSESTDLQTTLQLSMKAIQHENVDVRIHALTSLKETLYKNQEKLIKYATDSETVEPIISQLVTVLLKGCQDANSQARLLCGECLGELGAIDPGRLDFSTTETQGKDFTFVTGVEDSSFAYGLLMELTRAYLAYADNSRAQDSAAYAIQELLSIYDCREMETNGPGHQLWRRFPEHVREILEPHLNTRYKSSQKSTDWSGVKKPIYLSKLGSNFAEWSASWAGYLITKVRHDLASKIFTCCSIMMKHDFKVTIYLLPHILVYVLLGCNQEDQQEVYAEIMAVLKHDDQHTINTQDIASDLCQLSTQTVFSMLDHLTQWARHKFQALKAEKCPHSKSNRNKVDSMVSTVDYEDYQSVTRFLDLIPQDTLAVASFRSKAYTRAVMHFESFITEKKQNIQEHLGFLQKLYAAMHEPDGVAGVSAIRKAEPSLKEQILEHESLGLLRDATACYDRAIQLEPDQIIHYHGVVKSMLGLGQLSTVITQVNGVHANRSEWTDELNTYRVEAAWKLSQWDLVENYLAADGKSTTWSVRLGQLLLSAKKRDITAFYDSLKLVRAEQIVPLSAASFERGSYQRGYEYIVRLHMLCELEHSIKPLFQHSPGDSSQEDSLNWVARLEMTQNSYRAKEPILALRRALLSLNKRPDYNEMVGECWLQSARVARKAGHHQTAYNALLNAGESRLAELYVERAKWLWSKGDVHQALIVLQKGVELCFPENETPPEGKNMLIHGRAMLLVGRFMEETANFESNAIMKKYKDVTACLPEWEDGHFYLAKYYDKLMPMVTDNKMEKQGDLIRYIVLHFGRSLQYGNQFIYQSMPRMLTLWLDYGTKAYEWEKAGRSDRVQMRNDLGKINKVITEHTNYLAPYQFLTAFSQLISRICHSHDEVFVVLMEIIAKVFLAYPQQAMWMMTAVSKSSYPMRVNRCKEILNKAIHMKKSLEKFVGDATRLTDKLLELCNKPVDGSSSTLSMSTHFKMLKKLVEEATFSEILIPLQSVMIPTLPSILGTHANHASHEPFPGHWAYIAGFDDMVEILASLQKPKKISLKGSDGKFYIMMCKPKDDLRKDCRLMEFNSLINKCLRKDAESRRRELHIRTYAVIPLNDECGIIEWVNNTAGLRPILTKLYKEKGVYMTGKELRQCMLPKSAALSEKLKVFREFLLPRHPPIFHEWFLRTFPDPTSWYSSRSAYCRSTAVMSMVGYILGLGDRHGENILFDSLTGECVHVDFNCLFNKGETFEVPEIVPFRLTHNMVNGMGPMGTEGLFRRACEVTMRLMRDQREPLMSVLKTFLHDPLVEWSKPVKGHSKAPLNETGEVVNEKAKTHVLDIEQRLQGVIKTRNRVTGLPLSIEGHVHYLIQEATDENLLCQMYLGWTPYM
- method.description: ATR Inhibition Assay (radioactive-phosphate incorporation)
- Type: biochemical
- applied.conditions: Ki(app); 5 nM full-length ATR, 10 μM ATP, 800 μM target peptide, 25° C.; class symbols; read-out: ATR Inhibition Ki

[
  {
    "molecule": "Cc1ccc([C@@H](CCO)NC(=O)c2c[nH]c3ncc(-c4ccc(S(=O)(=O)C(C)C)cc4)nc23)cc1",
    "tgt": "ATR kinase (full-length ATR) (Homo sapiens, UniProt Q13535)",
    "Ki": "< 100 nM"
  },
  {
    "molecule": "CC(c1cccc(Cl)c1)N(C)C(=O)c1c[nH]c2ncc(-c3ccc(S(=O)(=O)C(C)C)cc3)nc12 (stereo not drawn)",
    "tgt": "ATR kinase (full-length ATR) (Homo sapiens, UniProt Q13535)",
    "Ki": "< 100 nM"
  },
  {
    "molecule": "CC(C)S(=O)(=O)c1ccc(-c2cnc3[nH]cc(C(=O)N[C@H](C)c4ccccc4)c3n2)cc1",
    "tgt": "ATR kinase (full-length ATR) (Homo sapiens, UniProt Q13535)",
    "Ki": "< 100 nM"
  },
  {
    "molecule": "CC(C)S(=O)(=O)c1ccc(-c2cnc3[nH]cc(C(=O)NC[C@H](O)c4ccccc4)c3n2)cc1",
    "tgt": "ATR kinase (full-length ATR) (Homo sapiens, UniProt Q13535)",
    "Ki": "< 100 nM"
  },
  {
    "molecule": "CC(C)S(=O)(=O)c1ccc(-c2cnc3[nH]cc(C(=O)Nc4ccccn4)c3n2)cc1",
    "tgt": "ATR kinase (full-length ATR) (Homo sapiens, UniProt Q13535)",
    "Ki": "100 to 500 nM"
  },
  {
    "molecule": "CC(c1ccccc1F)N(C)C(=O)c1c[nH]c2ncc(-c3ccc(S(=O)(=O)C(C)C)cc3)nc12 (stereo not drawn)",
    "tgt": "ATR kinase (full-length ATR) (Homo sapiens, UniProt Q13535)",
    "Ki": "500 to 5000 nM"
  },
  {
    "molecule": "CC(C)S(=O)(=O)c1ccc(-c2cnc3[nH]cc(C(=O)NC[C@@H](O)c4ccccc4)c3n2)cc1",
    "tgt": "ATR kinase (full-length ATR) (Homo sapiens, UniProt Q13535)",
    "Ki": "< 100 nM"
  },
  {
    "molecule": "CC(C)S(=O)(=O)c1ccc(-c2cnc3[nH]cc(C(=O)NC4CCC4)c3n2)cc1",
    "tgt": "ATR kinase (full-length ATR) (Homo sapiens, UniProt Q13535)",
    "Ki": "100 to 500 nM"
  },
  {
    "molecule": "CC(C)S(=O)(=O)c1ccc(-c2cnc3[nH]cc(C(=O)N4CCCc5ccccc54)c3n2)cc1",
    "tgt": "ATR kinase (full-length ATR) (Homo sapiens, UniProt Q13535)",
    "Ki": "100 to 500 nM"
  }
]
